# target_entity: Neuromedin-K receptor (Rattus norvegicus, UniProt P16177)
# Sequence (P16177 whole entry): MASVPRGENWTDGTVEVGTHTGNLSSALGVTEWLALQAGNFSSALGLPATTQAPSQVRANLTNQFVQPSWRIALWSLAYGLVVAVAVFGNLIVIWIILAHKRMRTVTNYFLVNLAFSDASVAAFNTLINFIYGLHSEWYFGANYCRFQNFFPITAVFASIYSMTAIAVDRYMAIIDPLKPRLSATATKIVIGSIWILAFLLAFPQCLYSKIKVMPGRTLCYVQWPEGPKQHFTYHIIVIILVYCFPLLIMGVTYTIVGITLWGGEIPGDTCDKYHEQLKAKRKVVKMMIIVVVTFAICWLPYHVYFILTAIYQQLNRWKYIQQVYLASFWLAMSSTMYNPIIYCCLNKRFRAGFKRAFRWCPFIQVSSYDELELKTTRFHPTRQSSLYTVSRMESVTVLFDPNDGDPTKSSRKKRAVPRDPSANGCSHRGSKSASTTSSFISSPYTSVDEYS
# assay_overview: Effective concentration to activate Tachykinin receptor 3 in rat portal vein(RPV).

substance: Ac-RFFPLM-NH2
EC50: > 50 µM

----------
# target_entity: Neuromedin-K receptor (Rattus norvegicus, UniProt P16177)
# assay_overview: Effective concentration to activate Tachykinin receptor 3 in rat portal vein (RPV)
pEC50: −log10 of the molar value. Starred links: 1 amine or outer side, 2 acyl side, 3 side chain; linkers in the order of their positions; H or OH if unused. Positions of bridges follow the written chain, without caps; N, C: chain ends. Non-standard residues stand in square brackets, D forms with d. Residues, ends and D or L forms follow the SMILES beside them. N(6-aminohexyl)Gly = O=C(CN(CCCCCCN[*:3])[*:1])[*:2]; NGly(3-aminopropyl) = O=C(CN(CCCN[*:3])[*:1])[*:2]; N(2-Aminoethyl)Gly = O=C(CN(CCN[*:3])[*:1])[*:2]; Adipoyl = O=C(CCCCC(=O)[*:2])[*:1]; Glutaryl = O=C(CCCC(=O)[*:2])[*:1]; Suc = O=C(CCC(=O)[*:2])[*:1]

compound: CSCC[C@H](NC(=O)[C@H](CC(C)C)NC(=O)CN1CCCNC(=O)CCCCC(=O)N[C@@H](CCCN=C(N)N)C(=O)N[C@@H](Cc2ccccc2)C(=O)N[C@@H](Cc2ccccc2)C1=O)C(N)=O (RFF[NGly(3-aminopropyl)]LM-NH2; linker N-4 via Adipoyl)
target_entity: Neuromedin-K receptor (Rattus norvegicus, UniProt P16177)
pEC50: < 5.00

compound: CSCC[C@H](NC(=O)[C@H](CC(C)C)NC(=O)CN1CCNC(=O)CCC(=O)NCC(=O)N[C@@H](CCCN=C(N)N)C(=O)N[C@@H](Cc2ccccc2)C(=O)N[C@@H](Cc2ccccc2)C1=O)C(N)=O (GRFF[N(2-Aminoethyl)Gly]LM-NH2; linker N-5 via Suc)
target_entity: Neuromedin-K receptor (Rattus norvegicus, UniProt P16177)
pEC50: < 5.00

compound: CSCC[C@H](NC(=O)[C@H](CC(C)C)NC(=O)CN1CCNC(=O)CCC(=O)N[C@@H](CCCNC(=N)N)C(=O)N[C@@H](Cc2ccccc2)C(=O)N[C@@H](Cc2ccccc2)C1=O)C(N)=O (RFF[N(2-Aminoethyl)Gly]LM-NH2; linker N-4 via Suc)
target_entity: Neuromedin-K receptor (Rattus norvegicus, UniProt P16177)
pEC50: < 5.00

compound: CSCC[C@H](NC(=O)[C@H](CC(C)C)NC(=O)CN1CCCCCCNC(=O)CCCC(=O)N[C@@H](CCCN=C(N)N)C(=O)N[C@@H](Cc2ccccc2)C(=O)N[C@@H](Cc2ccccc2)C1=O)C(N)=O (RFF[N(6-aminohexyl)Gly]LM-NH2; linker N-4 via Glutaryl)
target_entity: Neuromedin-K receptor (Rattus norvegicus, UniProt P16177)
pEC50: 6.00

----------
# target_entity: Substance-K receptor (Rattus norvegicus, UniProt P16610)
# Sequence (P16610 whole entry): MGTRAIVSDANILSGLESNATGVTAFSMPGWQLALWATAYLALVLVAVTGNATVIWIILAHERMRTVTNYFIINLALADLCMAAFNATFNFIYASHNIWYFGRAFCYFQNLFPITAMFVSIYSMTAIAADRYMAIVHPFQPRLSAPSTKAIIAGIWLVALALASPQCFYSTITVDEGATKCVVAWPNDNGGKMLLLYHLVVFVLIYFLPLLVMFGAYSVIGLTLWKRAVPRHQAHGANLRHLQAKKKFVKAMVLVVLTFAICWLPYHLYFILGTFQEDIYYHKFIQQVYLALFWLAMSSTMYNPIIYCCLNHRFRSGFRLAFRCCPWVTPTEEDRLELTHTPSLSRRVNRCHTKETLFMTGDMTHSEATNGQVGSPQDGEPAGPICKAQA
# assay_overview: Effective concentration to activate Tachykinin receptor 2 in rat vas deferens (RVD)
pEC50: −log10 of the molar value.
experimental_readout: pEC50

substance: Ac-RFFPLM-NH2
recorded_measurement: < 3.70
